# EXPERIMENTAL TARGET: hH1R (Homo sapiens, UniProt P35367)
# Sequence (P35367 whole entry): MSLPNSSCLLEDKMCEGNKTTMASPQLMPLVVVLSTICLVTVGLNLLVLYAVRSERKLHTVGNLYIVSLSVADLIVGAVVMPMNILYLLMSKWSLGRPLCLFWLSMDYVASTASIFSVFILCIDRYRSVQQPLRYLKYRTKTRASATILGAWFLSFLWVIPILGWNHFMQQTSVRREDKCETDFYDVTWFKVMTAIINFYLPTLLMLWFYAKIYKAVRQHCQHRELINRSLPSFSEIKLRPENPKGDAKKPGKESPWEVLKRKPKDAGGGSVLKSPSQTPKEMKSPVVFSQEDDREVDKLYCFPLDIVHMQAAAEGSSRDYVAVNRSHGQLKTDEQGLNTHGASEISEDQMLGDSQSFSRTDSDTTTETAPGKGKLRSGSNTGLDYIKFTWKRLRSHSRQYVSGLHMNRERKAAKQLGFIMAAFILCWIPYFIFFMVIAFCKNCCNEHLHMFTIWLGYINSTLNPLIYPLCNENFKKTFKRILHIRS
# MEASUREMENT PROTOCOL: Inositol phosphate
# Type: cell-based
# SETUP CONDITIONS: HEK293T cells transiently transfected with hH1R
PROPERTY NAME: functional character in histamine stimulated InsP accumulation assays

COMPOUND | RESULT
c1ccc2c(c1)n(CCN1CCCCC1)c1ncnn21 [compound 15] | inverse agonists
c1cnc2c(c1)cc([C@@H]1CCCO1)n2CCN1CCCCC1 [compound 10] | inverse agonists
c1ccc2c(c1)nc1n(CCN3CCCCC3)cnn21 [compound 13] | inverse agonists

Data provenance: paper PMC3228891
